Measured On: Cannabinoid receptor 2 (Homo sapiens, UniProt P34972)
Sequence (P34972 whole entry): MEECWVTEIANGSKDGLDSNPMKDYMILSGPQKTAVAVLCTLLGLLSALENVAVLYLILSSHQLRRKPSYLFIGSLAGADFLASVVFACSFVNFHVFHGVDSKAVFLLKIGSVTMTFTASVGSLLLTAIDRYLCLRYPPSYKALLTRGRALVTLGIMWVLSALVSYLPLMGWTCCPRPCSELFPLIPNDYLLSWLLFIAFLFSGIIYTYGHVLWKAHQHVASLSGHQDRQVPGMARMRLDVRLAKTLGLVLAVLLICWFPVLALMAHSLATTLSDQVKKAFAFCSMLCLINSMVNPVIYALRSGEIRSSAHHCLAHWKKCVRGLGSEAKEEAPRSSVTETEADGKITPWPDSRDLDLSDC
Test Name: Displacement of [3H]-CP55940 from human CB2 receptor expressed in HEK293 cell membranes after 90 mins by liquid scintillation counting method
pKi: −log10 of the molar value.
Response key: Criterion met means pKi >= 7; Criterion not met means pKi < 7.

Smiles Repr	Group
CCCCCCC(C)(C)c1cc(O)c2c(c1)OC(C)(C)c1cnoc1-2	Criterion met
CCCCCCC(C)(C)c1cc(O)c2c(c1)OC(C)(C)c1cnn(-c3cc(F)cc(F)c3)c1-2	Criterion not met
CCCCCCC(C)(C)c1cc(O)c2c(c1)OC(C)(C)c1cnn(-c3cccc(OC)c3)c1-2	Criterion not met
CCCCCCC(C)(C)c1cc(OCCCO)c2c(c1)OC(C)(C)c1cnn(CC)c1-2	Criterion not met
CCCCCCC(C)(C)c1cc(OCc2ccccc2)c2c(c1)OC(C)(C)c1cnn(CC)c1-2	Criterion not met
